- assay_comment: clinical
- measurement_parameters: male, human, in vivo
reported_metric: concentration at 3 weeks (ng/mL)
Report only the number, with the unit ng/mL understood.

Quick note, concentration at 3 weeks for Cc1cc2c(C(C)C)c(O)c(O)c(C=O)c2c(O)c1-c1c(C)cc2c(C(C)C)c(O)c(O)c(C=O)c2c1O landed at 10.2

* * *

- assay_comment: clinical
- measurement_parameters: male, human, in vivo, oral, 50 mg/d
reported_metric: concentration at 6 weeks (ng/mL)
Report only the number, with the unit ng/mL understood.

Quick note, concentration at 6 weeks for Cc1cc2c(C(C)C)c(O)c(O)c(C=O)c2c(O)c1-c1c(C)cc2c(C(C)C)c(O)c(O)c(C=O)c2c1O [Gossypol, gossypol] landed at 2.29
